Assay: Thermodynamic solubility of compound in water measured after 15 mins RP-HPLC analysis
Assay type: physicochemical
Conditions: read-out: Therm_solubility
Output Y for solubility thermodynamic at 0.25 h not less than 1 µg/mL; output N otherwise.

Prompt: Hi, just wondering whether CC(=O)c1cc2c(N)c(C(=O)Nc3ccncc3)sc2nc1C shows solubility thermodynamic at 0.25 h of 1 µg/mL or higher.
Response: N

Prompt: In plain terms: is recorded solubility thermodynamic at 0.25 h at least 1 µg/mL for Cc1nc2sc(C(=O)Nc3cccc4c3OCCO4)c(N)c2cc1C(C)O (centres undefined) ?
Response: Y

Prompt: Is solubility thermodynamic at 0.25 h for COc1ccc(NC(=O)c2sc3nc4c(cc3c2N)CN(C)CC4)cc1 at or above 1 µg/mL?
Response: Y

* * *

Test system: MDA-MB-231
Experiment: Antiproliferative activity against human MDA-MB-231 cells assessed as cell growth at 1 uM measured after 3 days by [3H]-thymidine incorporation assay relative to control
Format: functional
Settings: MDA-MB-231, 72 h, time 3 day, read-out: Activity
Catalogue of growth at 1 µM values
Answer with a number only, understood to be in %.

Example entries and their recorded answers appear below.
Prompt: Using MDA-MB-231 as the test system, report measured growth at 1 µM of Nc1c(C(=O)Nc2ccccc2Cl)sc2nc3c(cc12)CN(Cc1ccccc1)CC3 .
Response: 99.8

Prompt: Look up MDA-MB-231 data: growth at 1 µM of Cc1c(Cl)cccc1NC(=O)c1sc2nc3c(cc2c1N)CN(Cc1ccccc1)CC3 , then report it.
Response: 4

Prompt: With MDA-MB-231 as the test system, provide measured growth at 1 µM for this compound: CC(=O)c1cc2c(N)c(C(=O)Nc3ccc4c(c3)OCCO4)sc2nc1C
Response: 103

Prompt: Param request: growth at 1 µM | system MDA-MB-231 | item COc1ccc(NC(=O)c2sc3nc(C)c(C(C)O)cc3c2N)cc1 (stereo unspecified)
Response: 114

Next:
Prompt: Enter recorded growth at 1 µM with MDA-MB-231 for Cc1nc2sc(C(=O)Nc3cccc4ncccc34)c(N)c2cc1C(C)O (stereo unspecified) here.
Response: 112

Prompt: Output reported growth at 1 µM of the compound Nc1c(C(=O)Nc2ccccc2)sc2nc3c(cc12)CN(C(=O)OCc1ccccc1)CC3 on MDA-MB-231.
Response: 17.5

Prompt: Supply growth at 1 µM measured with MDA-MB-231 for CC(=O)c1cc2c(N)c(C(=O)Nc3ccccc3C)sc2nc1C .
Response: 97.1

* * *

Assay: Thermodynamic solubility of compound in water measured after 15 mins RP-HPLC analysis
Assay type: physicochemical
Conditions: read-out: Therm_solubility
Let's look at some compounds and their measured log10 solubility thermodynamic at 0.25 h.
Friendly reminder: values = log10 of solubility thermodynamic at 0.25 h, unit µg/mL.

Prompt: For the compound Cc1c(F)cccc1NC(=O)c1sc2nc3c(cc2c1N)CN(Cc1ccccc1)CC3 , give its reported log10 solubility thermodynamic at 0.25 h.
Response: -0.08

Continuing:
Prompt: Please supply the value of reported log10 solubility thermodynamic at 0.25 h for the item Nc1c(C(=O)Nc2cccc3ncccc23)sc2nc3c(cc12)C(=O)CCC3
Response: -0.39

Prompt: For the compound Nc1c(C(=O)Nc2ccccc2)sc2nc3c(cc12)CN(C(=O)OCc1ccccc1)CC3 , give its measured log10 solubility thermodynamic at 0.25 h value.
Response: 0.29

Prompt: Specify reported log10 solubility thermodynamic at 0.25 h for the compound shown: Cc1nc2sc(C(=O)Nc3ccnc4ccccc34)c(N)c2cc1C(C)O (stereo unspecified)
Response: 1.27

Prompt: Please list log10 solubility thermodynamic at 0.25 h recorded for the compound Nc1c(C(=O)Nc2ccccc2)sc2nc3c(cc12)CNCC3
Response: 1.61

Prompt: Consider the compound Cc1c(NC(=O)c2sc3nc4c(cc3c2N)CN(Cc2ccccc2)CC4)cccc1C(F)(F)F and give its recorded log10 solubility thermodynamic at 0.25 h.
Response: 0.12

Prompt: Determine from records and report log10 solubility thermodynamic at 0.25 h for Nc1c(C(=O)Nc2cccc3c2OCCO3)sc2nc3c(cc12)C(=O)CCC3
Response: -0.92

* * *

Test system: MDA-MB-231
Experiment: Antiproliferative activity against human MDA-MB-231 cells assessed as cell growth at 1 uM measured after 3 days by [3H]-thymidine incorporation assay relative to control
Assay type: functional
Conditions: MDA-MB-231, 72 h, time 3 day, read-out: Activity
molecules and their reported growth at 1 µM
Dear colleague, please return just the value in %, with no unit written.

Please review the entries below; each comes with its answer.
Prompt: Using MDA-MB-231 as the test system, report measured growth at 1 µM of Nc1c(C(=O)Nc2cccc(Cl)c2)sc2nc3c(cc12)CN(Cc1ccccc1)CC3 .
Response: 80.5

Prompt: Lab note: MDA-MB-231 assay, enter growth at 1 µM for Nc1c(C(=O)Nc2cccc3cccnc23)sc2nc3c(cc12)CN(Cc1ccccc1)CC3 here
Response: 104

Prompt: Given CC(=O)c1cc2c(N)c(C(=O)Nc3cccc4ccccc34)sc2nc1C , report its growth at 1 µM on MDA-MB-231.
Response: 13.6

Now for a further molecule.
Prompt: Report the value of growth at 1 µM obtained on MDA-MB-231 for CC(=O)c1cc2c(N)c(C(=O)Nc3cccc4cccnc34)sc2nc1C .
Response: 86.7

* * *

Entries and their measured log10 solubility thermodynamic at 0.25 h follow.
Test: Thermodynamic solubility of compound in water measured after 15 mins RP-HPLC analysis
Type: physicochemical
Conditions: read-out: Therm_solubility
Record value = log10 of solubility thermodynamic at 0.25 h given in µg/mL.

Prompt: Please indicate log10 solubility thermodynamic at 0.25 h recorded for Cc1c(Br)cccc1NC(=O)c1sc2nc3c(cc2c1N)CN(Cc1ccccc1)CC3
Response: -0.21

Prompt: Name the recorded log10 solubility thermodynamic at 0.25 h of the compound listed here: Nc1c(C(=O)Nc2cccc(Cl)c2)sc2nc3c(cc12)CN(Cc1ccccc1)CC3
Response: -0.67

Prompt: Give the reported log10 solubility thermodynamic at 0.25 h for this compound. Cc1nc2sc(C(=O)Nc3ccccn3)c(N)c2cc1C(C)O (centres undefined)
Response: 0.73

// next entry
Prompt: // fetch log10 solubility thermodynamic at 0.25 h given entry COc1cccc(NC(=O)c2sc3nc(C)c(C(C)=O)cc3c2N)c1C
Response: 0.18

* * *

Assay: Thermodynamic solubility of compound in water measured after 15 mins RP-HPLC analysis
Type: physicochemical
Conditions: read-out: Therm_solubility
Classification field: T = solubility thermodynamic at 0.25 h at or over 0.3 µg/mL; F = solubility thermodynamic at 0.25 h under 0.3 µg/mL.

Sample answers from the record:
Prompt: Determine whether measured solubility thermodynamic at 0.25 h meets or exceeds 0.3 µg/mL for CC(=O)c1cc2c(N)c(C(=O)Nc3cccc4ncccc34)sc2nc1C
Response: T

Prompt: Quick check, solubility thermodynamic at 0.25 h >= 0.3 µg/mL? Cc1c(Cl)cccc1NC(=O)c1sc2nc3c(cc2c1N)COCC3
Response: T

Prompt: # bool: solubility thermodynamic at 0.25 h of Cc1nc2sc(C(=O)Nc3ccc4c(c3)OCCO4)c(N)c2cc1C(C)O (stereo not given) >= 0.3 µg/mL
Response: F

Prompt: Answer whether solubility thermodynamic at 0.25 h of CC(=O)c1cc2c(N)c(C(=O)Nc3cccc(F)c3C)sc2nc1C is greater than or equal to 0.3 µg/mL.
Response: T

Could you now look at the following compound, please?
Prompt: For this compound, is measured solubility thermodynamic at 0.25 h 0.3 µg/mL or higher? Cc1ccccc1NC(=O)c1sc2nc(C)c(C(C)O)cc2c1N (stereo not given)
Response: T
